- Test target: T1, mouse serum albumin (mouse, UniProt P07724 25-608)
- T1 construct: Bought protein, immobilized on a CM5 chip by amine coupling; also called Mouse SA
- Protocol text: SPR (Biacore 8K), albumin immobilized on CM5 chip, 25 C, 1:1 kinetic fit
Catalogue of koff values
Remember to quote the unit after the number.

stdin: Which measured koff value corresponds to RLN Analog 4 (other, Single-chain fusion: VHH - (PGPQ)8 L1 - RLN2 B chain (desB1) - L2 - RLN2 A chain) EVQLLESGGGLVQPGGSLRLSCAASGRYIDETAVAWFRQAPGKEREFVAGIGGGVDITYYADSVKGRFTISRDNSKNTLYLQMNSLRPEDTAVYYCAARPGRPLITSKVADLYPYWGQGTLVTVSSPGPQPGPQPGPQPGPQPGPQPGPQPGPQPGPQSWMEEVIKLCGRELVRAQIAICGMSTWSGGGSGGSGGGQLYSALANKCCHVGCTKRSLARFC ?
stdout: 0.0039 s⁻¹

stdin: Which measured koff value corresponds to RLN Analog 6 (other, Single-chain fusion: RLN2 B chain (desB1) - L2 - RLN2 A chain - PGPQ-repeat L1 - VHH (C-terminal)) SWMEEVIKLCGRELVRAQIAICGMSTWSGGGSGGSGGGQLYSALANKCCHVGCTKRSLARFCPGPQPGPQPGPQPGPQPGPQPGPQPGPQPGPQEVQLLESGGGLVQPGGSLRLSCAASGRYIDETAVAWFRQAPGKEREFVAGIGGGVDITYYADSVKGRFTISRDNSKNTLYLQMNSLRPEDTAVYYCAARPGRPLITSKVADLYPYWGQGTLVTVSSPP ?
stdout: 0.0076 s⁻¹

stdin: Which measured koff value corresponds to RLN Analog 13 (other, Single-chain fusion: VHH - (G4Q)5 L1 - RLN2 A chain (desA1-4) - L2 - RLN2 B chain (desB1)) EVQLLESGGGLVQPGGSLRLSCAASGRYIDETAVAWFRQAPGKGREFVAGIGGGVDITYYADSVKGRFTISRDNSKNTLYLQMNSLRPEDTAVYYCAARPGRPLITSKVADLYPYWGQGTLVTVSSGGGGQGGGGQGGGGQGGGGQGGGGQALANKCCHVGCTKRSLARFCGGGSGGSGGGSWMEEVIKLCGRELVRAQIAICGMSTWS ?
stdout: 0.0048 s⁻¹
